system tested: Metabotropic glutamate receptor 7 (Rattus norvegicus, UniProt P35400)
Sequence (P35400 whole entry): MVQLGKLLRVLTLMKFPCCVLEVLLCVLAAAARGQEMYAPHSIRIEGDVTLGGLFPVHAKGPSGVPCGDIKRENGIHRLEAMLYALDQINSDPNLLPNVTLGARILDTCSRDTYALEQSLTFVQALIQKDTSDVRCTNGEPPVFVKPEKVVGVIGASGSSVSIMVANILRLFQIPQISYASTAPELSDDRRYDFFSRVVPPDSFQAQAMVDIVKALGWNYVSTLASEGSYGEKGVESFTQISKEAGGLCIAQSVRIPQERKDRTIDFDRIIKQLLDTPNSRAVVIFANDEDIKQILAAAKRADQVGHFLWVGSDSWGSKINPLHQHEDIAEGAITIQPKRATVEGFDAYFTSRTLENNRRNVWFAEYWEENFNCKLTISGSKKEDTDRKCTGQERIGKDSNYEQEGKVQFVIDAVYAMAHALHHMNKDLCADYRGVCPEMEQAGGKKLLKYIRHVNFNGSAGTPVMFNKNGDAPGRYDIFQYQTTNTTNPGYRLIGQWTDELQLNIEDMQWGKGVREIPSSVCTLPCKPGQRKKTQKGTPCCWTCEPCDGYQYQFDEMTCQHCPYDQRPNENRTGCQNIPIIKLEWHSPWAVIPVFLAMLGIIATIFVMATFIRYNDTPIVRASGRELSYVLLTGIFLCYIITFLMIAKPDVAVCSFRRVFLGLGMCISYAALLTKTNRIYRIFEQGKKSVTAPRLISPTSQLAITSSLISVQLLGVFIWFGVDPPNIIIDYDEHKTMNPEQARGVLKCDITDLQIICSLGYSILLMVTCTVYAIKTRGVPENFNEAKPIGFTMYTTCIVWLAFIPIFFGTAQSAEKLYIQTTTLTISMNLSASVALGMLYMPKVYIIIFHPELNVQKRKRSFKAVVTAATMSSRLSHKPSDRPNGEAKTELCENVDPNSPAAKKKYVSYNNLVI
assay name: Antagonist activity against rat mGlu7 activation transfected in HEK293 cells co-transfected with chimeric Gqi9 incubated for 24 hrs in presence of LSP4-2022 by IP-one HTRF assay
Assay type: functional, cell-based
measurement setup: read-out: IC50
endpoint: IC50 (nM)

Here is how some compounds turned out for IC50.
>  <structure>
O=C(COc1ccc(Br)cc1F)c1ccc(O)c(O)c1

>  <IC50 [nM]>
3440

$$$$
>  <structure>
O=C(COc1ccc(Br)cc1F)c1ccc(O)c(F)c1

>  <IC50 [nM]>
950

$$$$

I: O=C(COc1ccc(Br)cc1F)c1ccc(O)cc1
II: O=c1c(Oc2ccc(I)cc2)coc2cc(O)ccc12
III: O=C(COc1ccc(Br)cc1F)c1cc(F)c(O)c(F)c1
Prompt: Reorder: IC50, max to min. # answer = labels listed in requested order
Completion: II, I, III

----------
assay name: Antagonist activity against LSP4-202-induced rat mGlu7 […] mutant assessed as decrease in LSP4-202 potency by measuring LSP4-202 pEC50 at 3 uM
endpoint: EC50 (µM)
Please respond with the number in µM and leave the unit unwritten.

Prompt: Return reported EC50; argument: O=C(COc1ccc(Br)cc1F)c1ccc(O)c(F)c1
Completion: 6.88

----------
system tested: Metabotropic glutamate receptor 7 (Rattus norvegicus) (UniProt P35400)
Sequence (P35400 whole entry): as above
assay name: Antagonist activity against LSP4-202-induced rat mGlu7 activation transfected in HEK293 cells co-transfected with chimeric Gqi9 assessed as decrease in LSP4-202 potency by measuring LSP4-202 maximum efficacy at 30 to 100 uM incubated for 24 hrs by IP-one HTRF assay relative to control
Assay type: functional, cell-based
measurement setup: filed as antagonist, dose 30-100 µM
endpoint: Emax (%)

>  <structure>
O=c1c(Oc2ccc(I)cc2)coc2cc(O)ccc12

>  <Emax [%]>
96.4

$$$$
>  <structure>
COc1ccc(C(=O)COc2ccc(C(F)(F)F)cc2)cc1

>  <Emax [%]>
96.6

$$$$
>  <structure>
COc1ccc(C(=O)COc2ccc(I)cc2)cc1OC

>  <Emax [%]>
80.4

$$$$
>  <structure>
O=C(COc1ccc(O)cc1)c1ccc(O)cc1

>  <Emax [%]>
88.1

$$$$
>  <structure>
COc1ccc(C(=O)COc2ccc(C#N)cc2)cc1

>  <Emax [%]>
89.4

$$$$
>  <structure>
COc1ccc(OCC(=O)c2ccc(O)cc2)cc1OC

>  <Emax [%]>
96

$$$$
>  <structure>
Cc1cc(I)ccc1OCC(=O)c1ccc(O)cc1

>  <Emax [%]>
98.3

$$$$
>  <structure>
COc1ccc(C(=O)COc2ccc(I)c(C)c2)cc1

>  <Emax [%]>
95.9

$$$$
>  <structure>
O=C(COc1cccc(I)c1)c1ccc(O)cc1

>  <Emax [%]>
102

$$$$
>  <structure>
O=C(COc1c(Cl)cc(Br)cc1Cl)c1ccc(O)cc1

>  <Emax [%]>
101

$$$$
>  <structure>
N#Cc1ccc(OCC(=O)c2ccc(O)cc2)cc1

>  <Emax [%]>
92.6

$$$$
>  <structure>
NS(=O)(=O)c1ccc(OCC(=O)c2ccc(O)cc2)cc1

>  <Emax [%]>
89.2

$$$$
>  <structure>
O=C(O)c1ccc(OCC(=O)c2ccc(O)cc2)cc1

>  <Emax [%]>
98.6

$$$$
>  <structure>
O=C(COc1ccc([N+](=O)[O-])c([N+](=O)[O-])c1)c1ccc(O)cc1

>  <Emax [%]>
101

$$$$
>  <structure>
COc1ccc(C(=O)COc2ccc([N+](=O)[O-])cc2)cc1

>  <Emax [%]>
85.2

$$$$
>  <structure>
O=C(COc1ccc(F)cc1F)c1ccc(O)cc1

>  <Emax [%]>
100

$$$$
>  <structure>
O=C(COc1ccc([N+](=O)[O-])cc1)c1ccc(O)cc1

>  <Emax [%]>
98.5

$$$$
>  <structure>
N#Cc1c(F)cc(OCC(=O)c2ccc(O)cc2)cc1F

>  <Emax [%]>
94.2

$$$$
>  <structure>
O=C(COc1ccc(Br)cc1F)c1ccc(O)c(O)c1

>  <Emax [%]>
90.3

$$$$
>  <structure>
O=C(COc1cccc(O)c1)c1ccc(O)cc1

>  <Emax [%]>
96.8

$$$$
>  <structure>
O=C(COc1c(F)cc(Br)cc1F)c1ccc(O)cc1

>  <Emax [%]>
94.6

$$$$
>  <structure>
O=C(COc1ccc(I)cc1)c1ccc(O)cc1

>  <Emax [%]>
98.3

$$$$
>  <structure>
Cc1cc(OCC(=O)c2ccc(O)cc2)ccc1I

>  <Emax [%]>
97.5

$$$$
>  <structure>
O=C(COc1ccc(Br)cc1F)c1ccc(O)cc1

>  <Emax [%]>
87.3

$$$$
>  <structure>
O=Cc1ccc(OCC(=O)c2ccc(O)cc2)cc1F

>  <Emax [%]>
106

$$$$
>  <structure>
O=C(COc1ccc(Br)cc1Br)c1ccc(O)cc1

>  <Emax [%]>
96.1

$$$$

Provenance of the data: ChEMBL document CHEMBL5523707
